assayedSystem: Receptor-type tyrosine-protein kinase FLT3 (Homo sapiens, UniProt P36888)
Sequence (P36888 whole entry): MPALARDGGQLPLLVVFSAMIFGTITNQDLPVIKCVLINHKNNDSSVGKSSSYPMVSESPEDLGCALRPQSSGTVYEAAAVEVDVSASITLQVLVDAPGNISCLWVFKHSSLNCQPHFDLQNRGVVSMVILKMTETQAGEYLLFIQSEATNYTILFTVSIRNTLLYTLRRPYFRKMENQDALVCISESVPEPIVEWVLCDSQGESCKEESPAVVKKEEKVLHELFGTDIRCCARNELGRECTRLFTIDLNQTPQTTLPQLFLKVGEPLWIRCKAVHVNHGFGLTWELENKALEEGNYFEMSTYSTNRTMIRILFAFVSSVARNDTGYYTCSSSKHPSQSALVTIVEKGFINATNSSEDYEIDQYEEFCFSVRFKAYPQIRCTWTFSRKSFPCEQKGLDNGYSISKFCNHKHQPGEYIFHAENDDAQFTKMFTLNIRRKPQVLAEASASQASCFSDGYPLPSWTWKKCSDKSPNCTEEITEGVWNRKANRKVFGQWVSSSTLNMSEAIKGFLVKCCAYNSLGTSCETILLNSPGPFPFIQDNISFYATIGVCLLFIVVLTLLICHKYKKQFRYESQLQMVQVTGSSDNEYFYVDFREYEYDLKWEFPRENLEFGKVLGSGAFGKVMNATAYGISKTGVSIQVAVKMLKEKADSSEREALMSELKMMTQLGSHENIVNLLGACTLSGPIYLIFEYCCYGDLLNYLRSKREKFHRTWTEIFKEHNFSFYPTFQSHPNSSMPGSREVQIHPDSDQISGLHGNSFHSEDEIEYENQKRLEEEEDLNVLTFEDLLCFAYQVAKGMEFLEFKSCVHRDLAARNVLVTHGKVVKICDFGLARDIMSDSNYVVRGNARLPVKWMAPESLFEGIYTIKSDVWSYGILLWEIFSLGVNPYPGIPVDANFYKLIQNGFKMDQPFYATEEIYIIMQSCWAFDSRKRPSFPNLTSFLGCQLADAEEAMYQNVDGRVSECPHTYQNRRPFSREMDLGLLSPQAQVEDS
assayInfo: Inhibition of GST tagged human Flt-3 expressed in baculovirus at pH 7.6 measured after 15 mins in presence of gamma-[33P]-ATP by scintillation counter analysis
observable: pIC50
API: returns pIC50 as number; meaning -log10 of concentration in mol/L.

Please report pIC50 for the following compound: "Nc1ncnc2c1c(-c1cccc(OCc3ccccc3)c1)cn2[C@H]1C[C@@H](CN2CCC2)C1" 6.38

# credit: ChEMBL document CHEMBL5653598
